Test system: Plasmodium falciparum
Assay: GSK_TCMDC: Inhibition of Plasmodium falciparum 3D7 in whole red blood cells, using parasite LDH activity as an index of growth. Test compounds present at 2uM
Format: functional

>  <querySmiles>
Cc1ccccc1Nc1cc(Nc2ccccc2C)c2ccccc2n1

>  <experimentalTarget>
Plasmodium falciparum

>  <Inhibition>
96%

$$$$
>  <querySmiles>
O=C(NC1CCN(Cc2ccccc2)CC1)c1cc(C(=O)NC2CCN(Cc3ccccc3)CC2)cc(C(=O)NC2CCN(Cc3ccccc3)CC2)c1

>  <experimentalTarget>
Plasmodium falciparum

>  <Inhibition>
100%

$$$$
>  <querySmiles>
CS(=O)(=O)c1ccc2nc(NC(=O)c3csnn3)sc2c1

>  <experimentalTarget>
Plasmodium falciparum

>  <Inhibition>
90%

$$$$
>  <querySmiles>
Cc1cc(N2CCCC2)nc(Nc2ccc(NC(=O)C(C)(C)C)cc2)n1

>  <experimentalTarget>
Plasmodium falciparum

>  <Inhibition>
95%

$$$$
>  <querySmiles>
O=c1c2ccccc2[nH]c2nc3ccccc3c(Nc3ccccc3)c12

>  <experimentalTarget>
Plasmodium falciparum

>  <Inhibition>
98%

$$$$
>  <querySmiles>
CN1CCN(Cc2ccc(OCc3cccc(COc4ccc(CN5CCN(C)CC5)cc4I)c3)c(I)c2)CC1.Cl

>  <experimentalTarget>
Plasmodium falciparum

>  <Inhibition>
92%

$$$$
>  <querySmiles>
CN1CCN(CCCN(Cc2ccc(-c3cccc(CNCc4ccc5c(c4)OCO5)c3)cc2)C(=O)CCC2CCCC2)CC1.O=C(O)C(F)(F)F

>  <experimentalTarget>
Plasmodium falciparum

>  <Inhibition>
92%

$$$$
>  <querySmiles>
Oc1ccc(CCNc2nc(N/N=C/C=C/c3ccc(Cl)cc3)nc(N3CCNCC3)n2)cc1

>  <experimentalTarget>
Plasmodium falciparum

>  <Inhibition>
98%

$$$$
>  <querySmiles>
Fc1cccc(COc2ccc(Nc3ncnc4sc(C#Cc5ncc[nH]5)cc34)cc2Cl)c1

>  <experimentalTarget>
Plasmodium falciparum

>  <Inhibition>
100%

$$$$

----------
Test system: Plasmodium falciparum
Assay: GSK_TCMDC: Inhibition of Plasmodium falciparum Dd2 in whole red blood cells, using parasite LDH activity as an index of growth. Test compounds present at 2uM
Type: functional

>  <molecule>
Cc1ccc2nc3sc(C(=O)NCCCN4CCC(N5CCCCC5)CC4)cc3cc2c1

>  <experimentalTarget>
Plasmodium falciparum

>  <displayUnit>
%

>  <Inhibition>
71

$$$$
>  <molecule>
O=C(O)C(F)(F)F.O=S(=O)(NCCN1CCCC1)c1ccc(-c2cccc(CNCc3ccc(F)cc3)c2)s1

>  <experimentalTarget>
Plasmodium falciparum

>  <displayUnit>
%

>  <Inhibition>
50

$$$$
>  <molecule>
CCCCCCCN1CC[C@@H](C[C@H](N)Cc2ccnc3ccc(OC)cc23)[C@@H](CC)C1.O=C(O)C(=O)O

>  <experimentalTarget>
Plasmodium falciparum

>  <displayUnit>
%

>  <Inhibition>
51

$$$$
>  <molecule>
O=C(Nc1ccc(C(F)(F)F)cc1)c1ccc(S(=O)(=O)NC2CCN(Cc3ccccc3)C2)cc1.O=C(O)C(F)(F)F (centres undefined)

>  <experimentalTarget>
Plasmodium falciparum

>  <displayUnit>
%

>  <Inhibition>
5

$$$$

----------
Documented Inhibition across a set of molecules
Test system: Plasmodium falciparum
Assay: GSK_TCMDC: Inhibition of Plasmodium falciparum 3D7 in whole red blood cells, using parasite LDH activity as an index of growth. Test compounds present at 2uM
Type: functional
measureName: Inhibition (%)

>  <molecule>
O=C(c1cccc(-c2ccc(-c3nc4cc(C(F)(F)F)ccc4[nH]3)cc2)c1)N1CCCCC1CN1CCC(O)C1 (stereo not given)

>  <experimentalTarget>
Plasmodium falciparum

>  <observedResult>
92

$$$$
>  <molecule>
CC1CCC2(CC1)NC(N)=NC(=N)N2OCCCCCCCCO (stereo not given)

>  <experimentalTarget>
Plasmodium falciparum

>  <observedResult>
96

$$$$
>  <molecule>
Br.COc1ccc(CCON2C(=N)N=C(N)NC2(C)C)cc1OC

>  <experimentalTarget>
Plasmodium falciparum

>  <observedResult>
96

$$$$
>  <molecule>
Cc1cccc2nc(-c3cccc(-c4ccc(NC(=O)Nc5ccc(Cl)cc5)cc4)c3)[nH]c12

>  <experimentalTarget>
Plasmodium falciparum

>  <observedResult>
100

$$$$
>  <molecule>
Cc1ccc2[nH]c(C)cc(=NN=Cc3cccc(Cl)c3)c2c1

>  <experimentalTarget>
Plasmodium falciparum

>  <observedResult>
100

$$$$
>  <molecule>
O=C(O)C(F)(F)F.c1cc(CNCCc2ccncc2)cc(-c2cccc(-c3nc4ccccc4[nH]3)c2)c1

>  <experimentalTarget>
Plasmodium falciparum

>  <observedResult>
100

$$$$
>  <molecule>
CCOc1ccc(-c2nonc2NC(=O)c2ccc(Cl)cc2)cc1OCC

>  <experimentalTarget>
Plasmodium falciparum

>  <observedResult>
94

$$$$
>  <molecule>
COc1cccc(C(=O)NC(c2ccccc2OC)c2cc(Cl)c3cccnc3c2O)c1 (stereo not given)

>  <experimentalTarget>
Plasmodium falciparum

>  <observedResult>
91

$$$$
>  <molecule>
O=C(CCc1cccnc1)Nc1ccc(-c2cccc(-c3nc4cc(F)ccc4[nH]3)c2)cc1

>  <experimentalTarget>
Plasmodium falciparum

>  <observedResult>
86

$$$$
>  <molecule>
CCCCCCN1CCCN(Cc2ccc(C(=O)Nc3ccc(C(C)C)cc3)cc2)CC1.O=C(O)C(F)(F)F

>  <experimentalTarget>
Plasmodium falciparum

>  <observedResult>
93

$$$$

----------
Test system: Plasmodium falciparum
Test: GSK_TCMDC: Inhibition of Plasmodium falciparum Dd2 in whole red blood cells, using parasite LDH activity as an index of growth. Test compounds present at 2uM
Type: functional
Decide using Inhibition alone. Strictly below 40%: t. Equal to or above 40%: f.

>  <compound>
Cc1cccc(C(=O)NC(NC(=S)Nc2ccc([N+](=O)[O-])cc2)C(Cl)(Cl)Cl)c1 (stereo not drawn)

>  <category>
f

$$$$
>  <compound>
CC(=O)c1cccc(Nc2nc3ccc(OCc4cc(Cl)cc(Cl)c4)c(C#N)c3[nH]2)c1

>  <category>
f

$$$$
>  <compound>
Clc1ccc2nc(-c3cccnc3)[nH]c2c1

>  <category>
f

$$$$
>  <compound>
CCOc1cc(C(C)C)ccc1N1CCN(CCCCNC(=O)c2ccc(NC(=O)c3ccc(Cl)cc3)cc2)CC1

>  <category>
f

$$$$
>  <compound>
Cc1ccc(C(O)CNc2ccnc(Nc3cccc(-c4csc(C)n4)c3)n2)cc1 (stereo not drawn)

>  <category>
t

$$$$
>  <compound>
CCCCCCCCc1c(C)[nH]c(C)c(Cl)c1=O

>  <category>
f

$$$$
>  <compound>
CS(=O)(=O)NCCCNCc1ccc(-c2cccc(-c3nc4cc(C(F)(F)F)ccc4[nH]3)c2)cc1.O=C(O)C(F)(F)F

>  <category>
f

$$$$
>  <compound>
N#Cc1ccc(-c2ccc(C(=O)NCCCCN3CCC(c4cc(Br)c5c(c4OCC(N)=O)CCCC5)CC3)cc2)cc1

>  <category>
f

$$$$
>  <compound>
O=C(O)C[C@H](NC(=O)[C@@H]1CCCN1C(=O)c1cccc(-c2ccc(Cl)c(Cl)c2)c1)C(=O)O

>  <category>
t

$$$$
>  <compound>
Cc1ccc(-c2ccc(NC(=O)N3CCc4cc(Br)c(N5CCN(C)CC5)cc43)cc2)cn1

>  <category>
t

$$$$
>  <compound>
CCOC(=O)c1ccc(NC(=O)Nc2cccc(-c3ccc(-c4nc5ccccc5[nH]4)cc3)c2)cc1

>  <category>
f

$$$$
>  <compound>
CC(C)CN1CCCN(Cc2cccc(NC(=O)c3ccc(Cl)c(Cl)c3)c2)CC1.O=C(O)C(F)(F)F

>  <category>
t

$$$$
>  <compound>
CC(Cc1ccc(OCCN2CCN(c3ccc(Cl)cc3)CC2)cc1)NCC(O)c1cccc(C(F)(F)F)c1.Cl (stereo not drawn)

>  <category>
f

$$$$
>  <compound>
Cc1[nH]c(C)c(-c2ccc(-c3ccc(Cl)cc3)cc2)c(=O)c1Cl

>  <category>
f

$$$$
>  <compound>
CCn1ccc2c(N3CCCC3=O)cc(C(=O)N[C@@H](Cc3ccccc3)[C@H](O)CNCc3cccc(OC)c3)cc21

>  <category>
f

$$$$
>  <compound>
Cc1noc(C)c1-c1cccc(CNCc2cccc(-c3csc(-c4nc5ccccc5[nH]4)c3)c2)c1.O=C(O)C(F)(F)F

>  <category>
f

$$$$

----------
System: HepG2
Experiment: GSK_TCMDC: Percent inhibition of human HepG2 cell line. Test compounds present at 10uM.
Type: functional
Decide using Inhibition alone. Strictly below 20%: True. Equal to or above 20%: False.

>  <molecule>
CC(Nc1ncc(-c2ccsc2)c(-c2nccs2)n1)c1ccc2c(c1)OCCO2 (centres undefined)

>  <experimentalTarget>
HepG2

>  <category>
True

$$$$
>  <molecule>
C[C@@H](C(N)=O)N1CCCCC1c1ccc(OCc2cccc(F)c2)cc1 (some centres undefined)

>  <experimentalTarget>
HepG2

>  <category>
False

$$$$
>  <molecule>
O=C(Nc1ccc(-c2cccc(-c3nc4cc(F)ccc4[nH]3)c2)cc1)c1ccncc1

>  <experimentalTarget>
HepG2

>  <category>
False

$$$$
>  <molecule>
CCCc1cc(NCc2ccncc2)nc(Nc2ccc(F)cc2)n1

>  <experimentalTarget>
HepG2

>  <category>
True

$$$$
>  <molecule>
CS(=O)(=O)NCCCNCc1cccc(-c2cccc(-c3nc4cc(C(F)(F)F)ccc4[nH]3)c2)c1.O=C(O)C(F)(F)F

>  <experimentalTarget>
HepG2

>  <category>
True

$$$$
>  <molecule>
O=C(O)C(F)(F)F.O=S(=O)(NCCN1CCCC1)c1ccc(-c2cccc(CNCc3ccc(F)cc3)c2)s1

>  <experimentalTarget>
HepG2

>  <category>
False

$$$$
>  <molecule>
O=C(CNc1ccc(Cl)c(S(=O)(=O)N2CCCC2)c1)Nc1ccc(Br)cc1F

>  <experimentalTarget>
HepG2

>  <category>
True

$$$$
>  <molecule>
CN1CCN(c2ccnc3cc4ccccc4cc23)CC1

>  <experimentalTarget>
HepG2

>  <category>
True

$$$$
>  <molecule>
CCN(CC)c1nc(Nc2cc(C)ccc2C)nc(Nc2ccccc2O)n1

>  <experimentalTarget>
HepG2

>  <category>
True

$$$$
>  <molecule>
O=C(Nc1cccc(-c2nc3ccccc3[nH]2)c1)c1ccc(-c2cccc([N+](=O)[O-])c2)o1

>  <experimentalTarget>
HepG2

>  <category>
False

$$$$
>  <molecule>
CC(C)c1ccc2c(c1)c(SC(C)(C)C)c(CC(C)(C)C#N)n2Cc1ccc(Cl)cc1

>  <experimentalTarget>
HepG2

>  <category>
True

$$$$
>  <molecule>
Cc1noc(C)c1-c1cccc(CNCc2ccc(-c3cccc(-c4nc5ccccc5[nH]4)c3)cc2)c1.O=C(O)C(F)(F)F

>  <experimentalTarget>
HepG2

>  <category>
False

$$$$
>  <molecule>
Fc1ccc2[nH]c(-c3cccc(-c4cccc(CNCCN5CCNCC5)c4)c3)nc2c1.O=C(O)C(F)(F)F

>  <experimentalTarget>
HepG2

>  <category>
True

$$$$
>  <molecule>
COc1cc2nc(N(C)C)nc(Nc3ccc4c(cnn4Cc4ccccc4)c3)c2cc1OC

>  <experimentalTarget>
HepG2

>  <category>
False

$$$$
>  <molecule>
CCCCCN1CCCC1CNS(=O)(=O)c1ccc(C(=O)Nc2ccc(C(F)(F)F)cc2)cc1.O=C(O)C(F)(F)F (centres undefined)

>  <experimentalTarget>
HepG2

>  <category>
True

$$$$
>  <molecule>
CCOC(=O)c1nc(-c2ccc(Cl)cc2)[nH]c1NC(=S)NCCCN1CCOCC1

>  <experimentalTarget>
HepG2

>  <category>
False

$$$$
>  <molecule>
Cl.Cn1cnc(-c2ccc3c(c2)CCN(CCC2CCC(NC(=O)/C=C/c4ccc(F)cc4)CC2)CC3)c1 (centres undefined)

>  <experimentalTarget>
HepG2

>  <category>
False

$$$$
>  <molecule>
COc1cc(NC(=O)c2ccc3oc4ccccc4c3c2)ccc1OCCN1CCCCC1.Cl

>  <experimentalTarget>
HepG2

>  <category>
True

$$$$
